Reported IC50 on UniProt:O75116 for assorted compounds, compiled from publications.

Answered cases to consult:
> print(dat)
                                   compound  subject.of.test  readout.kind       result
1  COc1cccc(CN2C(=O)N(c3ccc(-c4cn[nH]c4)c(OC)n3)CC23CCN(C(=O)OC(C)(C)C)CC3)c1   UniProt:O75116          IC50       < 3 nM
2  N#Cc1cc(C(=O)N[C@H]2C[C@]3(C2)C[C@H](Oc2nc4c(cc2C(N)=O)COCC4)C3)ccc1F (stereo partly shown)   UniProt:O75116          IC50       156 nM
3  O=C(NC1CC2(C1)CC(c1n[nH]c(=O)c3ccccc13)C2)c1cnn2cc(N3CCC(F)C3)ccc12 (stereo not shown)   UniProt:O75116          IC50  0.2 to 2 nM

Read the next record carefully.
Prompt line: State, in one line, measured IC50 of `O=C1CN(CCc2ccccc2)C(=O)N1c1ccc(-c2cn[nH]c2)cc1`
Response line: 200 to 2000 nM

* * *

pIC50: −log10 of the molar value.
Please find below pIC50 measurements for ROCK2 (Homo sapiens, UniProt O75116), combined from several publications.
READOUT_KIND: pIC50

> print(dat)
                                   compound                       subject.of.test  result
1  Fc1cc(Nc2ccnc(-c3ccc4cc(-c5nccs5)[nH]c4c3)n2)ccc1-c1cn[nH]c1  ROCK2 (Homo sapiens, UniProt O75116)    7.57

A. O=C(C1CC(F)(F)C1)N1Cc2ccc(-c3ncc(F)c(Nc4ccc5[nH]ncc5c4)n3)cc2C1
B. NC(=O)c1cccnc1O[C@H]1C[C@]2(C1)C[C@H](N1C(=O)NC(CC3CC4CCC3C4)C1=O)C2 (stereo partly shown)
Prompt line: Min pIC50? A | B // respond with label for picked entry
Response line: A
(A: 7.41, B: 7.80)

* * *

Below are IC50 measurements against ROCK2 (Homo sapiens, UniProt O75116) drawn from the literature.
READOUT_KIND: IC50 (nM)

Examples from the recorded data:
> print(dat)
                                   compound  readout.unit  result
1  COc1cc(C(=O)NCc2c(F)ccc(F)c2F)ccc1-c1cn[nH]c1            nM    2.46
2  COCCn1c(NC(=O)Cc2ccc(Oc3ncccc3C(N)=O)c(F)c2)nc2cc(C(N)=O)ccc21            nM    3460
3  CNC(=O)c1cccc([C@@H](CO)NC(=O)c2ccc(-c3ccncc3)cc2)c1            nM     2.7
4  COc1cccc(C2(NC(=O)c3cc(-c4ccc5[nH]nc(C)c5c4)ccn3)CCNC2)c1 (stereo not shown)            nM       8

A. COc1cc(C(=O)NCc2cc(F)c(F)c(F)c2)ccc1-c1cn[nH]c1
B. CC(C)NC(=O)c1cc2ccc(-c3nc(Nc4ccc5[nH]ncc5c4)cc(OCCN(C)C)n3)cc2s1
C. CCOc1ccc2c(c1)N(C(=O)Cc1ccc(-c3n[nH]c(=O)c4ccccc34)cc1)CC2
D. O=C(NC1CC(F)(F)C1)N1Cc2ccc(-c3nccc(Nc4ccc(-c5cn[nH]c5)cc4)n3)cc2C1
Prompt line: Arrange the 4 compounds by rising IC50, starting with the smallest. Please respond with the labels ordered as the question requires.
Response line: C, A, D, B

* * *

pIC50: −log10 of the molar value.
The entries below pair compounds with pIC50 values for ROCK2 (Homo sapiens, UniProt O75116), as found in several publications.
READOUT_KIND: pIC50

# count of solved cases: 5
> print(dat)
                                   compound  result
1  COc1ccc(F)c(C(C)NC(=O)c2ccc(-c3cn[nH]c3)c(C(C)O)c2)c1 (stereo not drawn)    7.96
2  CC[C@H](C)[C@H]1CC(=O)N([C@H]2C[C@@]3(C[C@H](Oc4ncccc4C(N)=O)C3)C2)C(=O)N1 (stereo partly drawn)    6.86
3  [H][C@]1(Oc2ncccc2C(N)=O)C[C@]2(C[C@@H](N3C(=O)CN(c4cccc(Cl)c4)C3=O)C2)C1 (stereo partly drawn)    8.70
4  Cc1sc(NC(=O)Cc2ccc(Oc3ncccc3C(N)=O)c(Cl)c2)nc1-c1cccnc1F    7.92
5  Cc1nc(NC(=O)Cc2ccc(Oc3ncccc3C(N)=O)c(F)c2)sc1-c1ccccn1    7.42

I. COc1cc(C(=O)NC(C)c2c(F)cccc2Cl)ccc1-c1cn[nH]c1 (stereo not drawn)
II. O=C(Nc1ccc2c(c1)OCc1cnccc1-2)c1cncnc1
III. Cc1c(C(N)=O)c(O[C@H]2C[C@@]3(C[C@H](NC(=O)c4cnn5c(C6CC6)c(OCC(C)(C)O)ccc45)C3)C2)nn1C (stereo partly drawn)
Prompt line: Returns the items ordered by pIC50, from maximum to minimum. State the ranking by listing the labels in the requested order.
Response line: I, III, II
(I: 8.46, III: 6.59, II: 5.70)

1. C=Cn1c(C(=O)N2CC(F)(F)C2)cc2ccc(-c3nccc(Nc4ccc(-c5cn[nH]c5)cc4)n3)cc21
2. NC(=O)c1cc2c(nc1O[C@H]1C[C@@]3(C[C@H](NC(=O)c4cccc(OC(F)(F)F)c4)C3)C1)CCOC2 (stereo partly drawn)
3. NC(=O)c1cccnc1O[C@H]1C[C@]2(C1)C[C@H](N1C(=O)NC(CC3CC4CCC3CC4)C1=O)C2 (stereo partly drawn)
Prompt line: With regard to pIC50, arrange the entries in ascending order, please. Reply with the item labels sorted in the order that was asked for.
Response line: 2, 1, 3
(2: 6.96, 1: 7.30, 3: 7.70)

* * *

pIC50: −log10 of the molar value.
Here is a set of compounds with reported pIC50 for ROCK2 (Homo sapiens), compiled from the literature.

Known results for compounds:
> print(dat)
                                   compound  readout.kind        result
1  N#Cc1ccc(-c2cnn(Cc3cccc(C(=O)Nc4ccc5c(c4)OCc4cnccc4-5)c3)c2)cc1         pIC50          7.22
2  Cn1cc(-c2cccc3sc(N[C@H]4C[C@]5(C4)C[C@H](Oc4ncccc4C(N)=O)C5)nc23)cn1 (stereo partly shown)         pIC50          6.22
3  O=C(N[C@H]1CC2(C1)C[C@H](c1n[nH]c(=O)c3ccccc31)C2)c1cnn2cccc(C3CC3)c12 (stereo partly shown)         pIC50  7.00 to 7.82

Let us examine a further case.
Prompt line: Return pIC50 (reported value) for this compound: COc1cc(C(=O)NC(C)c2ccccc2)ccc1-c1cn[nH]c1 (stereo not shown)
Response line: 8.65

* * *

Dear all, I have gathered published IC50 values for ROCK2 (Homo sapiens); the list follows.
READOUT_KIND: IC50 (nM)

> print(dat)
                                   molecule  readout.kind  readout.unit  result
1  COC[C@@H](NC(=O)c1ccc(-c2cn[nH]c2)c(C(C)O)c1)c1ccccc1 (stereo partly shown)          IC50            nM     263

a. CC(NC(=O)c1cc2ccc(-c3nccc(Nc4ccc(-c5cn[nH]c5)cc4)n3)cc2n1C)C(F)(F)F (stereo not shown)
b. COc1cc(N2CCC3(CCN(S(=O)(=O)c4ccc(S(C)(=O)=O)cc4)CC3)C2=O)ccc1-c1cn[nH]c1
Prompt line: IC50 comparison. Which is larger, a or b ? Answer by stating the label of the chosen item.
Response line: b
(b: 843 nM, a: 395 nM)

* * *

pIC50: −log10 of the molar value.
# merged literature set: pIC50 with ROCK2 (Homo sapiens, UniProt O75116)
READOUT_KIND: pIC50

Example results:
> print(dat)
                                   compound  result
1  NC(=O)c1cccnc1Oc1ccc(CC(=O)Nc2nc3ccccc3n2CC2CCC2)cc1F    7.26
2  COc1cc(N2CCC3(CCN(C(=O)c4ccc(N5CCN(Cc6ccc(-c7ccccc7)cc6)CC5)cc4)CC3)C2=O)ccc1-c1cn[nH]c1    8.35
3  CC(C)OC(=O)c1cc2ccc(-c3nccc(Nc4ccc(-c5cn[nH]c5)cc4)n3)cc2[nH]1    6.33
4  O=C(COc1cccc(CN2CCC[C@@H](Nc3ccc4[nH]ncc4c3)C2)c1)Nc1cccnc1    6.81
5  CC(C)CNc1nnc(C(=O)N[C@H]2C[C@]3(C2)C[C@H](Oc2nc4c(cc2C(N)=O)COCC4)C3)s1 (stereo partly drawn)    7.22
6  O=C(Nc1cnoc1)c1cc2ccc(-c3nccc(Nc4ccc5[nH]ncc5c4)n3)cc2[nH]1    7.60
7  COc1cc(N2CCC3(CCN(C(=O)c4cccc5[nH]cnc45)CC3)C2=O)ccc1-c1cn[nH]c1    7.21
8  NC(=O)c1cccnc1Oc1ccc(CC(=O)Nc2nnc(C(F)(F)F)s2)cc1F    6.06

a. COc1cc(N2CCC3(CCN(C(=O)c4ccc(N5CCN(CC6CCOC6)CC5)cc4)CC3)C2=O)ccc1-c1cn[nH]c1 (stereo not drawn)
b. NC(=O)c1cccnc1O[C@H]1C[C@]2(C1)C[C@H](N1C(=O)CN(c3ccc(Oc4ccccc4)cc3)C1=O)C2 (stereo partly drawn)
c. [H][C@]1(Oc2ncccc2C(N)=O)C[C@]2(C[C@@H](Nc3nccc(NC4CCC(F)(F)CC4)n3)C2)C1 (stereo partly drawn)
d. COc1cc(N2CCC3(CCN(C(=O)c4ccc(-n5ccncc5=O)cc4F)CC3)C2=O)ccc1-c1cn[nH]c1
Prompt line: List items by pIC50 in falling order. Thanks in advance for listing the labels in the requested order.
Response line: a, d, b, c
(a: 9.15, d: 8.38, b: 8.05, c: 6.31)
